test.system: T1, glutathione S-transferase (GST) (UniProt P08515 1-218 = GST)
T1 construct: also called carrier protein GST
T1 sequence (P08515 whole entry): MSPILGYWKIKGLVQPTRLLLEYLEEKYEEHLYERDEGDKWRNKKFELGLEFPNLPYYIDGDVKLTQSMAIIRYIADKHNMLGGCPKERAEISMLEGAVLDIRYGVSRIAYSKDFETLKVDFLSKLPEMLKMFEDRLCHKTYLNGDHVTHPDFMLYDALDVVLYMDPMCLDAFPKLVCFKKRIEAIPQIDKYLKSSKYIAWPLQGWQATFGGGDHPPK
test: ELISA, Ab 0.100 µg/ml
Listing of recorded A450 by entry.
quantity: A450 (A450)

rabbit monoclonal anti-mouse/human Id3, clone #BCH-4/#42-1 (antibody, V domains shown, Rabbit IgG from a rabbit hybridoma; also called m/h Id3 MoAb 42-1) VH: QSVEESGGRLVTPGTPLTLTCTASGFSLSSYYIHWVRQAPGKALEWIGYISDGGTTYYASWAKGRFTISKTSSTTVDLKMTSLTTEDTATYFCARQGFNIWGPGTLVTVSL VL: AVLTQTPSPVSAAVGGTVTISCQSSQSVYNNNWLSWFQQKSGQPPKLLIYETSKLESGVPSRFKGSGSGTQFTLTIIDVQCDDAATYYCLGGYWSTSDNNIFGGGTEVVVK = 0.049
rabbit monoclonal anti-mouse/human Id3, clone #BCH-4/#17-3 (antibody, V domains shown, Rabbit IgG from a rabbit hybridoma; also called m/h Id3 MoAb 17-3; BCH-3/#17-3) VH: QSVEESGGRLVTPGTPLTLTCTASGFSLSNVYIHWVRQAPGKGLEWIGYISDGDTARYATWAKGRFTISKTSSTTVNLKMTSLTTEDTATYFCARQGFNIWGPGTLVTVSL VL: AVLTQTPSPVSAAVGGTVSISCQSSQSVWNNNWLSWFQQKPGQPPKLLIYETSKLESGVPSRFKGSGSGTQFTLTISDVQCDDAATYYCLGGYWTTSDNNVFGGGTEVVVK = 0.052
rabbit monoclonal anti-mouse/human Id3, clone #BCH-4/#16-1 (antibody, V domains shown, Rabbit IgG from a rabbit hybridoma; also called m/h Id3 MoAb 16-1) VH: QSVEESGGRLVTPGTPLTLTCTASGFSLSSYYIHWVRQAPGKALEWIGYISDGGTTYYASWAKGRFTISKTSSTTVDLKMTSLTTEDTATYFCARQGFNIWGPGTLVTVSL VL: AVLTQTPSPVSAAVGGTVTISCQSSQSVYNNNWLSWFQQKSGQPPKLLIYETSKLESGVPSRFKGSGSGTQFTLTIIDVQCDDAATYYCLGGYWTTSDNNIFGGGTEVVVK = 0.049
rabbit monoclonal anti-mouse/human Id3, clone #BCH-4/#6-1 (antibody, V domains shown, Rabbit IgG from a rabbit hybridoma; also called m/h Id3 MoAb 6-1) VH: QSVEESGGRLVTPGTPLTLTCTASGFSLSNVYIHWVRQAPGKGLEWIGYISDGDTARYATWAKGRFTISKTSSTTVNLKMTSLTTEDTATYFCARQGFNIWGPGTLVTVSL VL: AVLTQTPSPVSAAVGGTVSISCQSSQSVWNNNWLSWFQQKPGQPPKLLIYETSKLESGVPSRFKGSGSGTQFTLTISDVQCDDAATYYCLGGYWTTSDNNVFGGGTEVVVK = 0.047
rabbit monoclonal anti-human Id3, clone #BCH-4/#3-3 (antibody, V domains shown, Rabbit IgG from a rabbit hybridoma; also called h Id3 MoAb 3-3) VH: QSVEESGGRLVTPGTPLTLTCTVSGIDLSSYAMSWVRQAPGKGLEWIGVIFPSNNVYYASWAKGRFTISKTSTTVDLKITSPTTEDTATYFCASMGAFDSWGPGTLVTVSS VL: QVLTQTPSPVSAAVGGTVTINCQASQSIYNDNDLAWFQQKPGQPPKLLIYDASTLTSGVPSRFKGSGSGTQFTLTISDLDCDDAATYYCAARYSGNIYGFGGGTEVVVK = 0.048
